Below, each entry is listed with its recorded Kd.
systemUnderTest: T1, human VEGF (hVEGF) (human, UniProt P15692 181-395);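 further: fab variants injected over immobilized hVEGF on a CM5 chip, rate constants fitted with a one-to-one Langmuir model, Kd derived as koff over kon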
T1 construct: also called VEGF-A
T1 sequence: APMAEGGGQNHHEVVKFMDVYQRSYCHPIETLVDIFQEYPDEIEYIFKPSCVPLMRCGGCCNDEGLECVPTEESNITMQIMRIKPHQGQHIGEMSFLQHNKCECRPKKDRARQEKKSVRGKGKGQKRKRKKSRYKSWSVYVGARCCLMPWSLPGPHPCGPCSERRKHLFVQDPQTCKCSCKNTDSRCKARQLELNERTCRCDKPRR
experimentDescription: SPR
Response body: numeric value in nM, unit text excluded.

Worked set:
| binder | unitSymbol | Kd |
| --- | --- | --- |
| R19HCLC4 (Fab, V domains shown, Fab) VH: EEQLVEEGGGLVQPGESLRLSCAASGFEISDYWIHWVRQEPGEGLEWVAGITPAGGYEYYADSVEGRFTISADTSENTAYLQMNELRAEDTAVYYCARFVFFLPYAMDYWGQGELVTVSS VL: DIQMTQSPSSLSASVGDEVTITCRASQDVSTAVAWYQQKPGKAPKLLIYSASFLYSGVPSRFSGSGSGTDFTLTISSLQPEDAATYYCQQGYGAPFTFGQGTKVEIK | nM | 0.169 |
| G6.31 LC-N94A.LC-F83A (Fab, V domains shown, Fab; also called LC-F83A, LC-N94A; LCcombo5) VH: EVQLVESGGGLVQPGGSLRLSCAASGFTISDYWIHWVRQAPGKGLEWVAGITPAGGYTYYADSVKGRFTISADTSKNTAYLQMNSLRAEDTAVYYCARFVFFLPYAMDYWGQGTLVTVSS VL: DIQMTQSPSSLSASVGDRVTITCRASQDVSTAVAWYQQKPGKAPKLLIYSASFLYSGVPSRFSGSGSGTDFTLTISSLQPEDAATYYCQQGYGAPFTFGQGTKVEIK | nM | 1.43 |

// below: Kd requested for another binder
Entry under test: LCcombo1 (G6.31 WT VH with LCcombo1 VL) (Fab, V domains shown, Fab) VH: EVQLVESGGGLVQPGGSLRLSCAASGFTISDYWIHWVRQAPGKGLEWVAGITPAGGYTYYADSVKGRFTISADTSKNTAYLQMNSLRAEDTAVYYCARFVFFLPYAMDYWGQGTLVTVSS VL: DIQMTQSPESLSASVGDEVTITCRASQDVSTAVAWYQQKPGKAPKLLIYSASFLYSGVPSRFSGSGSGTDFTLTISSLQPEDAATYYCQQGYGAPFTFGQGTKVEIK . Its Kd was 2.27
